Test Target: MAGI2_3, Q86UL8
Sequence (Q86UL8 600-682): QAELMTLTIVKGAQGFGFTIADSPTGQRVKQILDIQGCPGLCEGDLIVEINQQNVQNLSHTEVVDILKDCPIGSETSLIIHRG
Protocol Notes: holdup assay
Design: key: below the threshold = too weak to quantify, mostly under pKd 3.1 to 4
Setup Conditions: plain residues with an end cap or a label only (N-terminal biotin on a linker: ado-ado)
Result Type: pKd

Consider the reported pKd for these binders:
{"Binder": "DFLSTFHIRI [CIB2, O75838]", "Result Type": "pKd", "Assay Result": "below the threshold"}
{"Binder": "GEDRSPPTAL [MKNK1, Q9BUB5]", "Result Type": "pKd", "Assay Result": "below the threshold"}
{"Binder": "RFQQRMQTHV [KIRREL1, Q96J84]", "Result Type": "pKd", "Assay Result": 3.75}
{"Binder": "REEPDHSTEV [CCRL2, O00421]", "Result Type": "pKd", "Assay Result": "below the threshold"}
{"Binder": "MHIQEKGFHV [EPHA6, Q9UF33]", "Result Type": "pKd", "Assay Result": "below the threshold"}

Turning now to a further binder:
The recorded pKd for TISFTQTSQF [SLC1A1, P43005] is below the threshold
